- tested target: CFTR-mediated chloride transport (Homo sapiens)
- Sequence (P13569 whole entry, looked up): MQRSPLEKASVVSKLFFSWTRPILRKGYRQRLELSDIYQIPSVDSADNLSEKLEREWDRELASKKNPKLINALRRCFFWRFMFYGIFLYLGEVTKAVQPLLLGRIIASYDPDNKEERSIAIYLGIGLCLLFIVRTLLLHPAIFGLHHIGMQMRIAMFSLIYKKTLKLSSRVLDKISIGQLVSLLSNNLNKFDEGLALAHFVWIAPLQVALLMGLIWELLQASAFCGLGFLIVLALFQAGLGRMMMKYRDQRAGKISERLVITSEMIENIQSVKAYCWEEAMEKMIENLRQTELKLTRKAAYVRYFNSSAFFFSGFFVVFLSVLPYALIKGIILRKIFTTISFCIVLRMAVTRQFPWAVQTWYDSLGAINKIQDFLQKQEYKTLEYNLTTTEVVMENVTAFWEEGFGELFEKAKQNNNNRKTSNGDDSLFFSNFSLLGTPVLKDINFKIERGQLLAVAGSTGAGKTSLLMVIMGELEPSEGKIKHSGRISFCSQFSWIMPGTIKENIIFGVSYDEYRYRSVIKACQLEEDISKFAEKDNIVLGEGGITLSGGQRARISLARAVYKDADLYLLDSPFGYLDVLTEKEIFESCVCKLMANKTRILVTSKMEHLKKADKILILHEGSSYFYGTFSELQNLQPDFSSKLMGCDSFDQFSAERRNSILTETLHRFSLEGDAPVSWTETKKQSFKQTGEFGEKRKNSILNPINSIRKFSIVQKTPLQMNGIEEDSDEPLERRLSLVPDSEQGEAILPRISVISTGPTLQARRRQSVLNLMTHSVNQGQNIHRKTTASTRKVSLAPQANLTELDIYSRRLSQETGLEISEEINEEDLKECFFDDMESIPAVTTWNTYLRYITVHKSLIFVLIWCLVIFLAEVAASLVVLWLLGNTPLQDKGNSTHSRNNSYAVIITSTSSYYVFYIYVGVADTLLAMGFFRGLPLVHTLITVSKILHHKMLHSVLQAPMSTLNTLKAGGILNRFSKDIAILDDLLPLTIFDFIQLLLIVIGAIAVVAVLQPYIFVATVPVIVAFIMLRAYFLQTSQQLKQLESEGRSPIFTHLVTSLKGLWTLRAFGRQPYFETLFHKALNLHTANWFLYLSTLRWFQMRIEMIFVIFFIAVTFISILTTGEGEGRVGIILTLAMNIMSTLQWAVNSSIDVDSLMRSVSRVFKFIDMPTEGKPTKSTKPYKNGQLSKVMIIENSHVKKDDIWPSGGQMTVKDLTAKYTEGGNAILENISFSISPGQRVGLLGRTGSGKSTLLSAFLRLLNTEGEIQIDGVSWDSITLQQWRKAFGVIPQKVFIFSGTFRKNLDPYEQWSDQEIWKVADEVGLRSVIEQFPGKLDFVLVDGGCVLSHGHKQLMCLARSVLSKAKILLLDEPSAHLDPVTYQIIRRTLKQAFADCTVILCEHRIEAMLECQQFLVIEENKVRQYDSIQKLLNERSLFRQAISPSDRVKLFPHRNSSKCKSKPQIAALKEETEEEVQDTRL
- Type: cell-based
- cond: enteroid cells incubated with test compound 18-24 hours; acute 10 μM forskolin and 300 nM Compound III; % of chloride transport with 3 μM Compound A, 3 μM Compound II and 300 nM acute Compound III triple combination control
property: Max. Activity

{"compound": "CC1(C)CC2CCCn3ccc(n3)S(=O)(=O)NC(=O)c3ccc(-n4ccc(OCCC(C5CC5)C5CC5)n4)nc3N1C2 (stereo not drawn)", "Max. Activity": "+++ (+++ is >60%)"}
{"compound": "CC1(C)C[C@H]2CCCn3ccc(n3)S(=O)(=O)NC(=O)c3ccc(N4CC[C@H](CCCC5(C(F)(F)F)CC5)C4=O)nc3N1C2 (single isomer, unassigned) [Compound 181]", "Max. Activity": "++ (++ is 30-60%)"}
{"compound": "CC1(C)C[C@H]2CCCOc3ccc(cc3)S(=O)(=O)NC(=O)c3ccc(-n4ccc(OCCC5(C(F)(F)F)CC5)n4)nc3N1C2 (single isomer, unassigned) [Compound 99]", "Max. Activity": "+++ (+++ is >60%)"}
{"compound": "CC1(C)C[C@H]2CCCCOc3ccc(cn3)S(=O)(=O)NC(=O)c3ccc(-n4ccc(OCCC5(C(F)(F)F)CC5)n4)nc3N1C2 (single isomer, unassigned) [Compound 103]", "Max. Activity": "++ (++ is 30-60%)"}
{"compound": "CC1(C)CC2CCNc3cccc(n3)S(=O)(=O)NC(=O)c3ccc(-n4ccc(OCCC5(C(F)(F)F)CC5)n4)nc3N1C2 (stereo not drawn)", "Max. Activity": "+++ (+++ is >60%)"}

Now for another entry.
Q. Identify the reported Max. Activity for the following entry. CN1CCCC2CN(c3nc(-n4ccc(OCCC5(C(F)(F)F)CC5)n4)ccc3C(=O)NS(=O)(=O)c3cccc1n3)C(C)(C)C2 (stereo not drawn)
A. +++ (+++ is >60%)
